ASSAYED_SYSTEM: D(4) dopamine receptor (Homo sapiens)
Sequence (P21917 whole entry): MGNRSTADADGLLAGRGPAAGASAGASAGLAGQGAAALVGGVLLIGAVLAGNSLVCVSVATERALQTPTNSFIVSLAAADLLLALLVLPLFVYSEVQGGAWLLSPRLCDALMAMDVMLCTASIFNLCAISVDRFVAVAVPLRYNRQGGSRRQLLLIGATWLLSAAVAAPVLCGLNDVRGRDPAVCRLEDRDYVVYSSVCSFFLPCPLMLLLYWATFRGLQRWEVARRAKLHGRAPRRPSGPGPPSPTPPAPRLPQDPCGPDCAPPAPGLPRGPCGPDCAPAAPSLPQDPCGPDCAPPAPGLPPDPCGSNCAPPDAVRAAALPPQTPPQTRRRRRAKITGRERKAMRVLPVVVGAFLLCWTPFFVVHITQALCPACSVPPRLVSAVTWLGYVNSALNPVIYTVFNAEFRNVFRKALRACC
TEST: Binding affinity to human D4 receptor transfected in human HEK293 cells by gamma-counting
Readings of Ki for the listed compounds
PARAMETER_MEASURED: Ki (nM)

SAMPLE_SMILES | PARAMETER_MEASURED | RESULT_NUMBER
O=C(NC/C=C/CN1CCN(c2ccccc2OCCF)CC1)c1ccc(CCF)cc1 | Ki | 890
O=C(NCCCCN1CCN(c2ccccc2OCCF)CC1)c1ccc(-c2ccsc2)cc1 | Ki | 246
CN(C)c1ccc(C(=O)NCCCCN2CCN(c3ccccc3OCCF)CC2)cc1 | Ki | 890
COc1ccccc1N1CCN(CCCCNC(=O)c2ccc(CCF)cc2)CC1 | Ki | 804
O=C(NCCCCN1CCN(c2ccccc2OCCF)CC1)c1ccc(OCCF)cc1 | Ki | 990
COc1ccccc1N1CCN(CCCCNC(=O)c2ccc(N(C)C)cc2)CC1 | Ki | 896
COc1ccccc1N1CCN(CCCCNC(=O)c2ccc(OCCOCCOCCF)cc2)CC1 | Ki | 2100
O=C(NC/C=C/CN1CCN(c2ccccc2OCCF)CC1)c1ccc(-c2ccsc2)cc1 | Ki | 182
COc1ccccc1N1CCN(CCCCNC(=O)c2ccc(OCCF)cc2)CC1 | Ki | 1400

* * *

Readings of pKi for the listed compounds
ASSAYED_SYSTEM: D(3) dopamine receptor (Homo sapiens, UniProt P35462)
Sequence (P35462 whole entry): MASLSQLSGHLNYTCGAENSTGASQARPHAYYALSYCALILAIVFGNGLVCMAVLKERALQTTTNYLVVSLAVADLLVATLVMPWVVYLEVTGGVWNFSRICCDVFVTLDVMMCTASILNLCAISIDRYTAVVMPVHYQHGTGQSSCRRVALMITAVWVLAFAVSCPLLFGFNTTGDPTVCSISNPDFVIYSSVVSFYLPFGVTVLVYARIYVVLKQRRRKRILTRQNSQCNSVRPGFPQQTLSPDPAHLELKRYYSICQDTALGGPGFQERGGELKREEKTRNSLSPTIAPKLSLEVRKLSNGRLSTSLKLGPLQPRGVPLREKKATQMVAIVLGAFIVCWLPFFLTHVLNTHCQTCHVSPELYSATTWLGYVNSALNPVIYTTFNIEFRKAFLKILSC
TEST: Displacement of [125I]-IABN from human D3 receptor transfected in human HEK 293 cells by gamma-counting
pKi: −log10 of the molar value.
PARAMETER_MEASURED: pKi

SAMPLE_SMILES | RESULT_NUMBER
COc1ccccc1N1CCN(CCCCNC(=O)c2ccc(CCF)cc2)CC1 | 8.62
COc1ccccc1N1CCN(CCCCNC(=O)c2ccc(OCCOCCF)cc2)CC1 | 8.21
COc1ccccc1N1CCN(C/C=C/CNC(=O)c2cc(Br)ccc2OCCF)CC1 | 7.87
O=C(NC/C=C/CN1CCN(c2ccccc2OCCF)CC1)c1ccc(CCF)cc1 | 8.96
COc1ccccc1N1CCN(CCCCNC(=O)c2ccc(OCCOCCOCCF)cc2)CC1 | 8.38
O=C(NCCCCN1CCN(c2ccccc2OCCF)CC1)c1ccc(OCCF)cc1 | 9.28
O=C(NCCCCN1CCN(c2ccccc2OCCF)CC1)c1ccc(OCCOCCF)cc1 | 8.60
O=C(NC/C=C/CN1CCN(c2ccccc2OCCF)CC1)c1ccc(-c2ccsc2)cc1 | 8.96
O=C(NCCCCN1CCN(c2ccccc2OCCF)CC1)c1ccc(OCCOCCOCCF)cc1 | 8.28
COc1ccccc1N1CCN(C/C=C/CNC(=O)c2ccc(OCCOCCF)cc2)CC1 | 7.74
O=C(NC/C=C/CN1CCN(c2ccccc2OCCF)CC1)c1ccc(OCCOCCF)cc1 | 7.71
CN(C)c1ccc(C(=O)NC/C=C/CN2CCN(c3ccccc3OCCF)CC2)cc1 | 8.44

* * *

ASSAYED_SYSTEM: D(2) dopamine receptor (Homo sapiens)
Sequence (P14416 whole entry): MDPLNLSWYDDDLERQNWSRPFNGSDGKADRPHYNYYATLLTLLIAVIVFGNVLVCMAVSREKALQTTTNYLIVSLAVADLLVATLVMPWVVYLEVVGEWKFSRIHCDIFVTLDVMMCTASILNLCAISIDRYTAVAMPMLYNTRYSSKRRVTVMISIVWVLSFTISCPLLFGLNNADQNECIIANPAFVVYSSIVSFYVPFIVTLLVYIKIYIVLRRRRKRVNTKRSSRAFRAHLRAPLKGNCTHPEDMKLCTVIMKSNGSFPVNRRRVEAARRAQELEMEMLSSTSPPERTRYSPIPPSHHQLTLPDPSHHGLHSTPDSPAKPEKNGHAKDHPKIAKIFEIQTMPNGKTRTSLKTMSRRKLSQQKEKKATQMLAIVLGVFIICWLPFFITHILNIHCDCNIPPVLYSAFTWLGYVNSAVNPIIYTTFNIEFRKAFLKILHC
TEST: Displacement of [125I]-IABN from human D2 receptor transfected in human HEK 293 cells by gamma-counting
Readings of Ki for the listed compounds
PARAMETER_MEASURED: Ki

SAMPLE_SMILES | PARAMETER_MEASURED | RESULT
O=C(NCCCCN1CCN(c2ccccc2OCCF)CC1)c1ccc(OCCF)cc1 | Ki | 15.1 nM
COc1ccccc1N1CCN(CCCCNC(=O)c2ccc(OCCOCCOCCF)cc2)CC1 | Ki | 52 nM
COc1ccccc1N1CCN(C/C=C/CNC(=O)c2cc(I)ccc2OCCF)CC1 | Ki | 13.2 nM
COc1ccccc1N1CCN(C/C=C/CNC(=O)c2cc(Br)cc(OC)c2OCCF)CC1 | Ki | 57.6 nM
O=C(NC/C=C/CN1CCN(c2ccccc2OCCF)CC1)c1ccc(OCCOCCF)cc1 | Ki | 64.8 nM
O=C(NC/C=C/CN1CCN(c2ccccc2OCCF)CC1)c1ccc(CCF)cc1 | Ki | 17.7 nM
O=C(NCCCCN1CCN(c2ccccc2OCCF)CC1)c1ccc(OCCOCCF)cc1 | Ki | 14.2 nM
O=C(NCCCCN1CCN(c2ccccc2OCCF)CC1)c1ccc(OCCOCCOCCF)cc1 | Ki | 31.7 nM
CN(C)c1ccc(C(=O)NCCCCN2CCN(c3ccccc3OCCF)CC2)cc1 | Ki | 15.1 nM
O=C(NC/C=C/CN1CCN(c2ccccc2OCCF)CC1)c1ccc(-c2ccsc2)cc1 | Ki | 70.5 nM
COc1ccccc1N1CCN(C/C=C/CNC(=O)c2ccc(OCCF)cc2)CC1 | Ki | 55.3 nM
CN(C)c1ccc(C(=O)NC/C=C/CN2CCN(c3ccccc3OCCF)CC2)cc1 | Ki | 35.2 nM
COc1ccccc1N1CCN(CCCCNC(=O)c2ccc(CCF)cc2)CC1 | Ki | 54.5 nM
COc1ccccc1N1CCN(C/C=C/CNC(=O)c2ccc(CCF)cc2)CC1 | Ki | 131 nM
COc1ccccc1N1CCN(C/C=C/CNC(=O)c2cc(C)ccc2OCCF)CC1 | Ki | 17.8 nM
COc1ccccc1N1CCN(CCCCNC(=O)c2ccc(OCCF)cc2)CC1 | Ki | 27.1 nM
COc1ccccc1N1CCN(C/C=C/CNC(=O)c2ccc(OCCOCCF)cc2)CC1 | Ki | 59.2 nM
COc1ccccc1N1CCN(C/C=C/CNC(=O)c2cc(Br)ccc2OCCF)CC1 | Ki | 13.4 nM
COc1ccccc1N1CCN(CCCCNC(=O)c2ccc(N(C)C)cc2)CC1 | Ki | 34.4 nM
O=C(NCCCCN1CCN(c2ccccc2OCCF)CC1)c1ccc(CCF)cc1 | Ki | 21.4 nM
O=C(NC/C=C/CN1CCN(c2ccccc2OCCF)CC1)c1ccc(OCCF)cc1 | Ki | 37.9 nM

* * *

TEST: Partition coefficient, log P of the compound
Format: physicochemical
SETUP_CONDITIONS: octanol/water
Label scheme for logP: lower than 4 is FALSE, 4 and above is TRUE.

SAMPLE_SMILES | ASSIGNED_CLASS
COc1ccccc1N1CCN(C/C=C/CNC(=O)c2ccc(OCCOCCF)cc2)CC1 | FALSE
COc1ccccc1N1CCN(C/C=C/CNC(=O)c2cc(Br)cc(OC)c2OCCF)CC1 | TRUE
O=C(NCCCCN1CCN(c2ccccc2OCCF)CC1)c1ccc(CCF)cc1 | FALSE
COc1ccccc1N1CCN(CCCCNC(=O)c2ccc(OCCOCCF)cc2)CC1 | FALSE
O=C(NCCCCN1CCN(c2ccccc2OCCF)CC1)c1ccc(OCCOCCOCCF)cc1 | FALSE

* * *

Species on record: Homo sapiens
TEST: Selectivity ratio of Ki for human D2 receptor to Ki for human D3 receptor
Label scheme for Ratio Ki: lower than 9 is label 0, 9 and above is label 1.

SAMPLE_SMILES | ASSIGNED_CLASS
COc1ccccc1N1CCN(CCCCNC(=O)c2ccc(OCCOCCOCCF)cc2)CC1 | label 1
COc1ccccc1N1CCN(C/C=C/CNC(=O)c2cc(Br)ccc2OCCF)CC1 | label 0
O=C(NC/C=C/CN1CCN(c2ccccc2OCCF)CC1)c1ccc(OCCF)cc1 | label 0
COc1ccccc1N1CCN(C/C=C/CNC(=O)c2cc(Br)cc(OC)c2OCCF)CC1 | label 0
COc1ccccc1N1CCN(C/C=C/CNC(=O)c2cc(I)ccc2OCCF)CC1 | label 0
COc1ccccc1N1CCN(CCCCNC(=O)c2ccc(N(C)C)cc2)CC1 | label 1
COc1ccccc1N1CCN(C/C=C/CNC(=O)c2ccc(CCF)cc2)CC1 | label 0
O=C(NCCCCN1CCN(c2ccccc2OCCF)CC1)c1ccc(OCCOCCOCCF)cc1 | label 0
COc1ccccc1N1CCN(CCCCNC(=O)c2ccc(OCCF)cc2)CC1 | label 1
CN(C)c1ccc(C(=O)NC/C=C/CN2CCN(c3ccccc3OCCF)CC2)cc1 | label 1
O=C(NC/C=C/CN1CCN(c2ccccc2OCCF)CC1)c1ccc(OCCOCCF)cc1 | label 0
COc1ccccc1N1CCN(C/C=C/CNC(=O)c2ccc(OCCOCCF)cc2)CC1 | label 0
O=C(NC/C=C/CN1CCN(c2ccccc2OCCF)CC1)c1ccc(-c2ccsc2)cc1 | label 1
COc1ccccc1N1CCN(C/C=C/CNC(=O)c2cc(C)ccc2OCCF)CC1 | label 0
O=C(NC/C=C/CN1CCN(c2ccccc2OCCF)CC1)c1ccc(CCF)cc1 | label 1
O=C(NCCCCN1CCN(c2ccccc2OCCF)CC1)c1ccc(CCF)cc1 | label 0

* * *

ASSAYED_SYSTEM: D(3) dopamine receptor (Homo sapiens, UniProt P35462)
TEST: Displacement of [125I]-IABN from human D3 receptor transfected in human HEK 293 cells by gamma-counting
pKi: −log10 of the molar value.
PARAMETER_MEASURED: pKi

SAMPLE_SMILES | RESULT_NUMBER
COc1ccccc1N1CCN(C/C=C/CNC(=O)c2cc(C)ccc2OCCF)CC1 | 7.73
COc1ccccc1N1CCN(CCCCNC(=O)c2ccc(N(C)C)cc2)CC1 | 9.10
COc1ccccc1N1CCN(C/C=C/CNC(=O)c2cc(I)ccc2OCCF)CC1 | 7.96
